These measurements were taken from patent US9370520B2.

Reported values of pIC50 for individual entries
EXPERIMENTAL_SYSTEM: truncated LRRK2 (Homo sapiens, UniProt Q5S007)
Construct: a truncated LRRK2 enzyme (GST tagged LRRK2 of amino acids 970-2527); GST; purchased Invitrogen Corporation
Sequence (Q5S007 970-2527): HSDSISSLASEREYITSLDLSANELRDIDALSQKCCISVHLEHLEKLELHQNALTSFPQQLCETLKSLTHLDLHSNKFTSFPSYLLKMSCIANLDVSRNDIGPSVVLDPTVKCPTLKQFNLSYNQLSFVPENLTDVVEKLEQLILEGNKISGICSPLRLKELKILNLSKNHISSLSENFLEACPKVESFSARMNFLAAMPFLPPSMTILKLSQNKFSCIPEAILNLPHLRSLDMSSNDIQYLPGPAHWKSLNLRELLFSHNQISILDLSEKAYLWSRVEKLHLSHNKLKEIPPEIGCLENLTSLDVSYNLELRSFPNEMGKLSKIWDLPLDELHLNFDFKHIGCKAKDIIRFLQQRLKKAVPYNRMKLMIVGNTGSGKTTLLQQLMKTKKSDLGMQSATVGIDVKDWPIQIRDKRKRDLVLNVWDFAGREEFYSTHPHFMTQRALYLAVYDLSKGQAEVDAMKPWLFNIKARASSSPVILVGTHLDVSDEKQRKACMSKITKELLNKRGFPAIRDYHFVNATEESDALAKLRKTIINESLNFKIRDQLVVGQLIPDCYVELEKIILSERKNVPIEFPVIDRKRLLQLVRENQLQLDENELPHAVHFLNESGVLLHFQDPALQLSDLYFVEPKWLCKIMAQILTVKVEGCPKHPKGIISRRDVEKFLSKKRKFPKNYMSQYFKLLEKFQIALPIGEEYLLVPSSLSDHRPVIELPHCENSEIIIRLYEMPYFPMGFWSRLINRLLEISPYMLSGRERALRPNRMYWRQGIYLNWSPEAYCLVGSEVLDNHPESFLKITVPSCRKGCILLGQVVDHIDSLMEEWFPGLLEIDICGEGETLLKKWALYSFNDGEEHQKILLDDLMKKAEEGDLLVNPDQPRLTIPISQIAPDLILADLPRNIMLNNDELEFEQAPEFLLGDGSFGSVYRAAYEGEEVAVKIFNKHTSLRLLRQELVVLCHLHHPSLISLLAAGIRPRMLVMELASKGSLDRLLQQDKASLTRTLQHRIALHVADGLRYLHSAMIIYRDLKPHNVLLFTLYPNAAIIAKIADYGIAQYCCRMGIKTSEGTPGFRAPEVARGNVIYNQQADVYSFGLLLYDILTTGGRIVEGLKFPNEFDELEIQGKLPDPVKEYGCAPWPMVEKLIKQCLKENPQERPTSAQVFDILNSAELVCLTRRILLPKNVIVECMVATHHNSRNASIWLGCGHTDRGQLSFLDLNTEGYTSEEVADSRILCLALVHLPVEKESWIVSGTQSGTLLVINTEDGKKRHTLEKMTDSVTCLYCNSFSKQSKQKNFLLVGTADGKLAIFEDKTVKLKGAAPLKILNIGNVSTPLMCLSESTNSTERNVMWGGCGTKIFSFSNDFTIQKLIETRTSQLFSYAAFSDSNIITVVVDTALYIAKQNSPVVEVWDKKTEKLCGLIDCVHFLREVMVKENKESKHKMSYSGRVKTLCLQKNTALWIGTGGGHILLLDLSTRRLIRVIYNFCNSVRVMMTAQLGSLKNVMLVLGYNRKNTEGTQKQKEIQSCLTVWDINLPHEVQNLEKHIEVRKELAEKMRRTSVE
ASSAY_INFO: radiometric protein kinase assay (33PanQinase Activity Assay, Protocol 2), truncated LRRK2
Type: biochemical
MEASUREMENT_CONDITIONS: Protocol 2; ATP 0.3 μM, substrate GSK3(14-27); read-out: IC50 for truncated LRRK2
pIC50: −log10 of the molar value.

Some entries whose results are on file:
1) CN(C)CCN1CCN(C)c2ccn3ncc(c3n2)-c2cccc(c2)OCC1=O [Compound 58] ... < 6.00
2) CC(C)C(=O)N1CCNCc2cccc(c2)-c2cnn3ccc(nc23)NCC1 [Compound 53] ... < 6.00
3) C[C@H]1NCc2cccc(c2)-c2cnn3ccc(nc23)NCCNC1=O [Compound 62] ... < 6.00
4) COc1ccc2cc1OCCN(C(=O)C1CC1)CCNc1ccn3ncc-2c3n1 [Compound 66] ... 6.00 to 7.00

Q. Specify measured pIC50 for O=C(C1CC1)N1CCNc2cccc(c2)-c2cnn3ccc(nc23)NCC1 [Example 35] .
A. > 7.00

Q. Please report pIC50 for the following molecule: CC(=O)N1CCNCc2cccc(c2)-c2cnn3ccc(nc23)NCC1 [Example 52]
A. 6.00 to 7.00

Q. Answer with the recorded pIC50 of O=C1CCCNc2ccn3ncc(c3n2)-c2cccc(c2)OCCCN1 [Example 43] only.
A. 6.00 to 7.00

Q. Give recorded pIC50. CN1CC(=O)NCCNc2ccn3ncc(c3n2)-c2cccc1c2 [Compound 61]
A. < 6.00

Q. Tell me pIC50 reported for CN(C)C(=O)N1CCNc2ccn3ncc(c3n2)-c2cccc(c2)OCC1 [Example 11]
A. > 7.00
